Numbers sourced from the supplement of paper PMC12783771.

B1: library; numbered along this chain (parent)
chain: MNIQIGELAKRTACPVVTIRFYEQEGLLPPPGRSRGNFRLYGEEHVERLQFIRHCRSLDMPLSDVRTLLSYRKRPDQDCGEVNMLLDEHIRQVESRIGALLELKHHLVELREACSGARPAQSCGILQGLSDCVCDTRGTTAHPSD

variants of: B1; assay: sfGFP reporter fluorescence (15 h) (µM FITC); higher = higher leak; settings: library round: Round 0; ligand: none
Lab note: anything with sfGFP reporter fluorescence at or over 0.06 counts as true; the rest go in false.

MNIQIGELAKRTACPVVTIRFYEQEGLLPPPGRSRGNFRLYGEEHVERLQFIRHCRSLDMPLSDVRTLLSYRKRPDQDCGEVNMLLDESIRQVESRIGALLELKHHLVELREACSGARPAQSCGILQGLSDCVCDTRGTTAHPSD [H89S]; false
MNIQIGELAKRTACPVVTIRFYEQEGLLPPPGRSRGNFRLYGEEHVERLQFIRHCRSLDMPLSDVRTLLSYRKRPDQDCGEVNMLLDEHIRQVESRIGALLELKHHLVHLREACSGARPAQSCGILQGLSDCVCDTRGTTAHPSD [E109H]; false
MNIQIGELAKRTACPVVTIRFYEQEGLLPPPGRSRGNFRLYGEEHVERLQFIRHCRSLDMPVSDVRTLLSYRKRPDQDCGEVNMLLDEHIRQVESRIGALLELKHHLVELREACSGARPAQSCGILQGLSDCVCDTRGTTAHPSD [L62V]; true
MNIQIGELAKRTACPVVTIRFYEQEGLLPPPGRSRGNFRLYGEEHVERLQFIRHCRSLDMPLSDVRTLLSYRKRPDQDCGEVNMLLDEHIRQVESRIGALLELKHHLVELHEACSGARPAQSCGILQGLSDCVCDTRGTTAHPSD [R111H]; false
MNIQIGELAKRTACPVVTIRFYEQEGLLPPPGRSRGNFRLYGEEHVERLQFIRHCRSLDGPLSDVRTLLSYRKRPDQDCGEVNMLLDEHIRQVESRIGALLELKHHLVELREACSGARPAQSCGILQGLSDCVCDTRGTTAHPSD [M60G]; false

Please turn your attention to the following entry.
Query string: // inclusive: sfGFP reporter fluorescence at least 0.06? input: MNIQIGELAKRTACPVVTIRFYEQEGLLPPPGRSRGNFRLYGEEHVERLQFIRHCRSLDMELSDVRTLLSYRKRPDQDCGEVNMLLDEHIRQVESRIGALLELKHHLVELREACSGARPAQSCGILQGLSDCVCDTRGTTAHPSD [P61E]
Result string: true
